All values here come from patent US9725432B2.

observed-property: melting point (°C)

COc1ccc(-c2ncc(-c3cccc(C#N)c3)c(C3CCN(CC(C)(C)C#N)CC3)n2)cn1 [Compound 85]    165
COc1cccc(-c2cnc(-c3ccncc3)nc2C2CCN(Cc3cccs3)CC2)c1 [Compound 19]    130
COc1cccc(-c2cnc(-c3ccncc3)nc2C2CCN(CC3CCCCC3)CC2)c1 [Compound 17]    130
COc1cccc(-c2cnc(-c3ccncc3)nc2C2CCN(Cc3ccc(F)cc3)CC2)c1 [Compound 29]    152
COc1cccc(-c2cnc(-c3ccncc3)nc2C2CCN(Cc3ccco3)CC2)c1 [Compound 18]    120

---

// melting point lookup, one value per entry

CC(C)(C#N)CN1CCC(c2nc(-c3ccc(S(C)(=O)=O)cc3)ncc2-c2cccc(C#N)c2)CC1    101 to 122 °C
COc1cccc(-c2cnc(-c3ccncc3)nc2C2CCN(Cc3cccc(C)c3)CC2)c1    160 °C
COc1cccc(-c2cnc(-c3ccncc3)nc2C2CCN(Cc3cccc(F)c3)CC2)c1    111 to 114 °C
CC(C)(C#N)CN1CCC(c2nc(-c3ccncc3)ncc2-c2cccc(C#N)c2)CC1    79 to 87 °C
COc1cccc(-c2cnc(-c3ccccn3)nc2C2CCN(Cc3cc(Cl)ccc3O)CC2)c1    165 to 166 °C

# lookup: melting point of COc1cccc(-c2cnc(-c3ccc(C#N)cc3)nc2C2CCN(CC(F)(F)F)CC2)c1
180 to 182 °C

Subsequent entry: COc1cccc(-c2cnc(-c3ccncc3)nc2C2CCN(C3CC3)CC2)c1
153 to 156 °C

Subsequent entry: CC(C)(C#N)CN1CCC(c2nc(-c3cncnc3)ncc2-c2cccc(C#N)c2)CC1
182 °C

Subsequent entry: COc1cccc(-c2cnc(-c3ccncc3)nc2C2CCN(Cc3cc(Cl)ccc3O)CC2)c1
227 to 228 °C

Subsequent entry: COc1cccc(-c2cnc(-c3ccncc3)nc2N2CCC(NC(=O)C(C)Oc3ccccc3)CC2)c1 (stereo not shown)
106 to 108 °C

---

// melting point lookup, one value per entry

Please review the following examples before continuing.
COc1cccc(-c2cnc(-c3ccncc3)nc2NC2CCN(CC(C)(C)C)CC2)c1    137 to 138 °C
N#Cc1cccc(-c2cnc(-c3ccncc3)nc2C2CCCN(CC(F)(F)F)C2)c1 (stereo not shown)    163 to 164 °C
N#Cc1cccc(-c2cnc(-c3ccncc3)nc2C2CCN(CC(F)(F)F)CC2)c1    168 to 172 °C

Consider the additional compound presented here.
# lookup: melting point of CC(C)(C)CN1CCC(c2nc(-c3ccncc3)ncc2-c2cccc(C(F)(F)F)c2)CC1
112 to 114 °C

---

// melting point lookup, one value per entry

# lookup: melting point of CC(C)(C)CN1CCC(c2nc(-c3ccc(F)cc3)ncc2-c2cccc(C#N)c2)CC1 [Compound 66]
154 to 158 °C

---

// CC50 at 72 h lookup, one value per entry
assay-method-text: Cytotoxicity MTT assay
Assay type: cell-based
measurement-setup: human, HelaM cells, concentration that causes 50% reduction in cell viability
Please reply with the bare figure in µg/mL and do not write the unit itself.

Please review the following examples before continuing.
CN(C)c1ncc(-c2cccc(Cl)c2)c(C2CCN(CC(C)(C)C)CC2)n1 [Compound 52]    6.7
COc1cccc(-c2cnc(-c3ccncc3)nc2C2CCN(Cc3c(F)cccc3F)CC2)c1 [Compound 47]    2.1
COc1cccc(-c2cnc(-c3ccncc3)nc2C2CCN(Cc3ccc(C#N)cc3)CC2)c1 [Compound 34]    8.7
COc1cccc(-c2cnc(-c3ccncc3)nc2NC2CCN(CC(C)(C)C)CC2)c1 [Compound 30]    8.8
COc1cccc(-c2cnc(-c3ccncc3)nc2C2CCN(CC(C)(F)F)CC2)c1 [Compound 70]    6.7
COc1cccc(-c2cnc(-c3ccncc3)nc2C2CCN(Cc3ccc(F)cc3F)CC2)c1 [Compound 32]    5.5
CC(C)(C)CN1CCC(c2nc(-c3ccc(F)cc3)ncc2-c2cccc(C#N)c2)CC1 [Compound 66]    8.8
COc1cccc(-c2cnc(-c3ccncc3)nc2C2CCN(Cc3ccccc3C(F)(F)F)CC2)c1 [Compound 46]    4.2
COc1cccc(-c2cnc(-c3ccncc3)nc2C2CCN(Cc3cccc(C(F)(F)F)c3)CC2)c1 [Compound 28]    4.7
COc1cccc(-c2cnc(-c3ccncc3)nc2C2CCN(Cc3ccccc3O)CC2)c1 [Compound 10]    9.9

# lookup: CC50 at 72 h of COc1cccc(-c2cnc(-c3ccncc3)nc2C2CCN(Cc3cccc(Cl)c3)CC2)c1 [Compound 45]
4.9

Subsequent entry: COc1cccc(-c2cnc(-c3ccncc3)nc2C2CCN(Cc3ccc(F)c(F)c3)CC2)c1 [Compound 43]
6.2

Subsequent entry: COc1cccc(-c2cnc(-c3ccncc3)nc2C2CCN(Cc3cccc(C)c3)CC2)c1 [Compound 33]
7.6

Subsequent entry: COc1cccc(-c2cnc(-c3ccncc3)nc2C2CCN(Cc3cc(Cl)ccc3O)CC2)c1 [Compound 5]
6.3

---

assay-method-text: Cytotoxicity MTT assay
Type: cell-based
measurement-setup: human, HelaM cells, concentration that causes 50% reduction in cell viability
observed-property: CC50 at 72 h (µg/mL)
Please reply with the bare figure in µg/mL and do not write the unit itself.

CC(C)(C)CN1CCC(c2nc(-c3ccncc3)ncc2-c2cccc(C(F)(F)F)c2)CC1    7
COc1cccc(-c2cnc(-c3cccnc3)nc2C2CCN(C(=O)C(C)Oc3ccccc3)CC2)c1 (stereo not shown)    7.1

Consider the additional compound presented here.
# lookup: CC50 at 72 h of COc1cccc(-c2cnc(-c3ccncc3)nc2C2CCN(Cc3ccc(Cl)cc3)CC2)c1
7

---

// melting point lookup, one value per entry

Please review the following examples before continuing.
N#Cc1cccc(-c2cnc(-c3ccc(F)cc3)nc2C2CCN(CC(F)(F)F)CC2)c1    157 to 158 °C
CC(C)(C)CN1CCC(c2nc(-c3ccc(C#N)cc3)ncc2-c2cccc(C#N)c2)CC1    247 to 249 °C
CC(C)(C)CN1CCC(c2nc(C3CC3)ncc2-c2cccc(C#N)c2)CC1    125 to 126 °C
Cc1cccc(-c2cnc(-c3ccncc3)nc2C2CCN(CC(C)(C)C)CC2)c1    123 to 127 °C
CC(C)(C)CN1CCN(c2nc(-c3ccncc3)ncc2-c2cccc(C#N)c2)CC1    155 to 164 °C
N#Cc1cccc(-c2cnc(-c3cccnc3)nc2C2CCCN(CC(F)(F)F)C2)c1 (stereo not shown)    52 to 92 °C

# lookup: melting point of CC(C)(C)C(=O)N1CCC(c2nc(-c3ccc(F)cc3)ncc2-c2cccc(C#N)c2)CC1
75 to 80 °C

Subsequent entry: CC(C)(C)CN1CCCC(c2nc(-c3cccnc3)ncc2-c2cccc(C#N)c2)C1 (stereo not shown)
57 to 113 °C

Subsequent entry: COc1ccc(-c2ncc(-c3cccc(C#N)c3)c(C3CCN(CC(C)(C)C)CC3)n2)cn1
144 to 145 °C

Subsequent entry: CC(C)(C)CN1CCC(c2nc(-c3cccnc3)ncc2-c2cccc(C#N)c2)CC1
148 to 150 °C

---

// melting point lookup, one value per entry

Please review the following examples before continuing.
COc1cccc(-c2cnc(-c3cccnc3)nc2C2CCN(CC(C)(C)C)CC2)c1    222 to 224 °C
COc1cccc(-c2cnc(-c3ccncc3)nc2N2CCC(c3ccccc3)CC2)c1    157 to 159 °C

# lookup: melting point of COc1cccc(-c2cnc(-c3ccncc3)nc2C2CCN(CC(C)C)CC2)c1
105 to 106 °C

---

// melting point lookup, one value per entry

Please review the following examples before continuing.
COc1cccc(-c2cnc(-c3ccncc3)nc2C2CCN(Cc3ccccc3O)CC2)c1    142 to 146 °C
Cc1cccc(-c2cnc(-c3ccncc3)nc2C2CCN(Cc3ccccc3O)CC2)c1    149 to 151 °C
CC(C)(C)CN1CCC(c2nc(C(F)(F)F)ncc2-c2cccc(C#N)c2)CC1    114 to 116 °C
Cc1cccc(-c2cnc(-c3ccncc3)nc2C2CCN(Cc3cc(Cl)ccc3O)CC2)c1    180 to 181 °C

# lookup: melting point of CN(C)c1cccc(-c2cnc(-c3ccncc3)nc2C2CCN(CC(C)(C)C)CC2)c1
140 to 142 °C

Subsequent entry: COc1cccc(-c2cnc(-c3ccncc3)nc2C2CCN(Cc3ccc(Cl)cc3O)CC2)c1
119 to 123 °C

---

assay-method-text: Cytotoxicity MTT assay
Assay type: cell-based
measurement-setup: human, HelaM cells, concentration that causes 50% reduction in cell viability
// CC50 at 72 h lookup, one value per entry

Please review the following examples before continuing.
COc1cccc(-c2cnc(-c3ccncc3)nc2C2CCN(CC(C)C)CC2)c1    > 10.1 µg/mL
COc1cccc(-c2cnc(-c3ccncc3)nc2C2CCN(CC(F)F)CC2)c1    > 10.3 µg/mL
COc1cccc(-c2cnc(-c3cccnc3)nc2C2CCN(CC(C)(C)C)CC2)c1    > 11.4 µg/mL

Consider the additional compound presented here.
# lookup: CC50 at 72 h of Cc1cccc(-c2cnc(-c3ccncc3)nc2C2CCN(Cc3cccc(F)c3)CC2)c1
> 11 µg/mL
